tested-on: CDK12–cyclin K and DDB1 (Homo sapiens, UniProt Q16531+Q9NYV4, K965R)
Construct: His6–CDK12 (a.a. 713–1,052); full-length or beta-propeller B domain deletion (ΔBPB: a.a. 396–705 deleted) constructs of His6–DDB1ΔBPB, StrepII–Avi–DDB1, or His6–Spy–DDB1; made in house; host or cells: Trichoplusia ni High Five insect cells (baculovirus)
Sequence (Q9NYV4 713-1052 K965R): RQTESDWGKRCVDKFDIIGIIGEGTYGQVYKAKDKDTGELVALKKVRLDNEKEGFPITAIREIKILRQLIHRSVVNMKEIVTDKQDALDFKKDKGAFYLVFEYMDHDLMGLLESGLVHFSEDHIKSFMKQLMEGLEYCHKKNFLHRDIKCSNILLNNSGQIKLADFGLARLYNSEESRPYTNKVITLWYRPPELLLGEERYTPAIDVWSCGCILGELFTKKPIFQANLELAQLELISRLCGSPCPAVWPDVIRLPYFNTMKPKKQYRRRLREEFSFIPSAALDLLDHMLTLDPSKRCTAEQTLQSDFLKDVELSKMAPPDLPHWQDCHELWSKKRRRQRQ
Sequence (O75909 1-267 partner): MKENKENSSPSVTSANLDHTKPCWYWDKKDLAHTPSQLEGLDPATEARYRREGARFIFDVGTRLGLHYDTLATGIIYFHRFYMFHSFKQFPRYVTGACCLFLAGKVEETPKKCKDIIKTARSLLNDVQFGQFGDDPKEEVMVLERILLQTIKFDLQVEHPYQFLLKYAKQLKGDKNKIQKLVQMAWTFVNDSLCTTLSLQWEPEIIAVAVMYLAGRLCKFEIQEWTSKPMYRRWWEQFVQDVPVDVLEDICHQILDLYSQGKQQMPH
Sequence (Q16531 whole entry): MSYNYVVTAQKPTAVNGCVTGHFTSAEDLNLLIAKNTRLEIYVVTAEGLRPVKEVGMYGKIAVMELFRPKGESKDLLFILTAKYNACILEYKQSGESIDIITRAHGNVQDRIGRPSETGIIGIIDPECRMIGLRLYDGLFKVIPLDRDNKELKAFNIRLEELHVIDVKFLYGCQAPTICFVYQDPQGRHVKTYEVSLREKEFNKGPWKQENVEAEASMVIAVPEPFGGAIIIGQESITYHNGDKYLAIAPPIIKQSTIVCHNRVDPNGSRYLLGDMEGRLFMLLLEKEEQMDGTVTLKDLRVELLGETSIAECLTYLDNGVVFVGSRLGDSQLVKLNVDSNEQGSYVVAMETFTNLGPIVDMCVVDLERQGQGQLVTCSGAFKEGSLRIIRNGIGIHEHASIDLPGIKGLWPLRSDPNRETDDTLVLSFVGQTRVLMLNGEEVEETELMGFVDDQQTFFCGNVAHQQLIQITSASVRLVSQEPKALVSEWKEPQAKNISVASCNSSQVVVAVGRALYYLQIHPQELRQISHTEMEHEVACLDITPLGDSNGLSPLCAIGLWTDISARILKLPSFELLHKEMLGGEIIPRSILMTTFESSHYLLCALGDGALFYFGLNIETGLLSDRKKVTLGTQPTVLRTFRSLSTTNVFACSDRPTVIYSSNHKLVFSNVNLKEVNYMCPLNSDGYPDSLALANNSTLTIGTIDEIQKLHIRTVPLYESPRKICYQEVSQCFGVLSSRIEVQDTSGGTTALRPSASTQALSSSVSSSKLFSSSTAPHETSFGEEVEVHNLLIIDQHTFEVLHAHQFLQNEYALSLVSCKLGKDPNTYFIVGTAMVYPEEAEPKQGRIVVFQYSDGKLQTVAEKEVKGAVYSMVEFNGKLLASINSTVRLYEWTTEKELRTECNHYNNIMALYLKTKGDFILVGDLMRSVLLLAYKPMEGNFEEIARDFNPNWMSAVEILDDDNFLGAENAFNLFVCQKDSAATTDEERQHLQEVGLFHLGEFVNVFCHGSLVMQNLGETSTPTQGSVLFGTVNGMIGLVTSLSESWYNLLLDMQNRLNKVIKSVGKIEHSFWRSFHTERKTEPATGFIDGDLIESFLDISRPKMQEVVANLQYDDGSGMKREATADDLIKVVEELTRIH
test-details: TR-FRET Kd determination, quadratic fit, 50 nM or 10 nM CDK12–cyclin K
Format: binding
condition-parameters: 10 nM CDK12-cyclin K; compound 30.96 nM
From the text: Equation (2) is a quadratic binding equation used for Kd determination,where Top and Bottom refer to the curve plateaus. […]
recorded-metric: TR-FRET signal

molecule | TR-FRET signal
CC[C@H](CO)Nc1nc(NCc2nc3cc(Cl)c(Cl)cc3[nH]2)c2ncn(C(C)C)c2n1 | 0.5623
Cc1cc2nc(CNc3nc(N4CCN(C)CC4)nc4c(Br)cnn34)[nH]c2cc1C [DS73, reference compound] | 0.5275
CCC(CO)Nc1nc(NCc2ccc(-c3ccccn3)cc2)c2ncn(C(C)C)c2n1 (stereo not shown) [CR8, reference compound] | 0.4536
CCC(CO)Nc1nc(NCc2ccc(-c3ccccc3)cc2)c2ncn(C(C)C)c2n1 (stereo not shown) | 0.4043
